# System: A-427
# experimental.details: Antiproliferative activity against human A-427 cells assessed as reduction in cell growth incubated for 48 hrs by CellTiter assay
# condition.info: A-427, 48 h

| compound.string | system.under.test | EC50 |
| --- | --- | --- |
| Cc1ncsc1-c1ccc(CNC(=O)[C@@H]2C[C@@H](O)CN2C(=O)[C@@H](NC(=O)CCCCCCCCCOc2ccc3c(-c4ccc(C(=O)O)c(C5CCCC5)c4)ncnc3c2)C(C)(C)C)cc1 | A-427 | > 8 µM |
